Target: IRAK4 (Homo sapiens (Human))
testReadout: IC50 (nM)

[
  {
    "compound": "CCC(C)Nc1cc(-c2cnn3cc(Cl)cnc23)ncc1C(=O)NC[C@@H](F)C(C)(C)O (stereo in doubt) [Example 69]",
    "unitAbbrev": "nM",
    "IC50": 2
  },
  {
    "compound": "CC(C)(O)[C@H](F)CNC(=O)c1cnc(-c2cnn3cc(Cl)cnc23)cc1NC1CCC(F)C1 (stereo partly shown) [Example 85]",
    "unitAbbrev": "nM",
    "IC50": 2
  }
]

[A] CC(C)(O)[C@H](F)CNC(=O)c1cnc(-c2cnc3cc(Cl)cnn23)cc1Nc1cnn(CC(F)F)c1 [Example 262]
[B] CC(C)(O)[C@H](F)CNC(=O)c1cnc(-c2cnc3cc(Cl)cnn23)cc1Nc1cnn(C2CC(F)(F)C2)c1 [Example 277]
[C] CC(C)(O)[C@H]1CC[C@H](NC(=O)c2cnc(-c3cnc4cccnn34)cc2NC2COC2)CC1 [Example 133]
[D] CC(C)(O)[C@H](F)CNC(=O)c1cnc(-c2cnc3cc(Cl)cnn23)cc1Nc1cnn(C2CCC2)c1 [Example 285]
[E] CC(C)Nc1cc(-c2cnc3cc(C#N)cnn23)ncc1C(=O)NCCc1ccccn1 [Example 216]
// sort entries: IC50, high to low Please respond with the labels ordered as the question requires.
C, E, D, B, A
(C: 36 nM, E: 8 nM, D: 3 nM, B: 2 nM, A: 1 nM)

* * *

Experiment: Caco Permeability Assay
Type: in vitro ADME
Settings: human, Caco-2, Caco-2 cells, 3 μM compound
testReadout: Papp at 2 h, 3 µM (×10⁻⁶ cm/s)

[
  {
    "compound": "CC[C@H](F)CNc1cc(-c2cnn3cc(Cl)cnc23)ncc1C(=O)NC[C@@H](F)C(C)(C)O",
    "recordedResult": 14.8
  },
  {
    "compound": "CC(C)(O)[C@H](F)CNC(=O)c1cnc(-c2cnn3cc(Cl)cnc23)cc1Nc1cnn(C2CCC2)c1",
    "recordedResult": 6.6
  },
  {
    "compound": "CC(C)(O)[C@H](F)CNC(=O)c1cnc(-c2cnn3cc(Cl)cnc23)cc1Nc1cnn(CC(F)(F)F)c1",
    "recordedResult": 3.6
  },
  {
    "compound": "CC(C)(O)[C@H](F)CNC(=O)c1cnc(-c2cnc3cc(Cl)cnn23)cc1NC1CC1",
    "recordedResult": 13.4
  },
  {
    "compound": "CC(C)(O)[C@H](F)CNC(=O)c1cnc(-c2cnc3cc(Cl)cnn23)cc1NC1CCOCC1",
    "recordedResult": 8.2
  },
  {
    "compound": "CC(C)(O)[C@H](F)CNC(=O)c1cnc(-c2cnn3cc(Cl)cnc23)cc1NC1CCC1",
    "recordedResult": 27
  },
  {
    "compound": "CC(C)(O)[C@H](F)CNC(=O)c1cnc(-c2cnn3cc(Cl)cnc23)cc1NC1COCC1(F)F (single isomer, unassigned)",
    "recordedResult": 4.9
  },
  {
    "compound": "CC(C)(O)[C@H](F)CNC(=O)c1cnc(-c2cnc3cc(C#N)cnn23)cc1NC1CCC1",
    "recordedResult": 8.9
  }
]

[A] CC(C)(O)[C@H](F)CNC(=O)c1cnc(-c2cnn3cc(Cl)cnc23)cc1Nc1cnn(C2COC2)c1
[B] CC(C)(F)CNc1cc(-c2cnn3cc(C#N)cnc23)ncc1C(=O)NC[C@@H](F)C(C)(C)O
Record comparison, field Papp at 2 h, 3 µM: mark the lower of A and B . API: response body contains the label of the selected item.
A
(A: 2.6 ×10⁻⁶ cm/s, B: 5 ×10⁻⁶ cm/s)

* * *

Lab note: IC50 readings collected with IRAK4 (Homo sapiens (Human), UniProt Q9NWZ3) for the following compounds.
Sequence (Q9NWZ3 whole entry): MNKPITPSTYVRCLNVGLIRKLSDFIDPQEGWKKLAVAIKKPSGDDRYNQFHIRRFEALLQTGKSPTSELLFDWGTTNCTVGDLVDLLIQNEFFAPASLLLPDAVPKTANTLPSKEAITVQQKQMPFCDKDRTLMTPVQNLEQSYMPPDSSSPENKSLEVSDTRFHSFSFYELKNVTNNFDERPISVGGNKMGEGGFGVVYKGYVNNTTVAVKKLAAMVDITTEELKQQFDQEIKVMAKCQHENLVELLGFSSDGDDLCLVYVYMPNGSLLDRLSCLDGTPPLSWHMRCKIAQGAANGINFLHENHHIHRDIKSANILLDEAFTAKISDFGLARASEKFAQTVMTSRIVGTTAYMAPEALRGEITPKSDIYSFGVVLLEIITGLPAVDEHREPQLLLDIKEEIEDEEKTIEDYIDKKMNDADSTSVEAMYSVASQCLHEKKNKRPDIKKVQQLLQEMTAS
testReadout: IC50 (nM)

Here is how some compounds turned out for IC50.
[
  {
    "compound": "CC(C)(O)[C@H](F)CNC(=O)c1cnc(-c2cnn3cc(Cl)cnc23)cc1Nc1cnn(C(F)F)c1",
    "unitAbbrev": "nM",
    "IC50": 1
  },
  {
    "compound": "CC(C)(O)[C@H](F)CNC(=O)c1cnc(-c2cnn3cc(Cl)cnc23)cc1NC1CCOC1 (stereo partly drawn)",
    "unitAbbrev": "nM",
    "IC50": 4
  },
  {
    "compound": "CC(F)(F)Cn1ccc(Nc2cc(-c3cnn4cc(C#N)cnc34)ncc2C(=O)NC[C@@H](F)C(C)(C)O)n1",
    "unitAbbrev": "nM",
    "IC50": 4
  },
  {
    "compound": "CC(C)(F)[C@H](F)CNC(=O)c1cnc(-c2cnc3cc(Cl)cnn23)cc1NC1COC1",
    "unitAbbrev": "nM",
    "IC50": 7
  },
  {
    "compound": "COC1CC(Nc2cc(-c3cnn4cc(Cl)cnc34)ncc2C(=O)NC[C@@H](F)C(C)(C)O)CC1(F)F (single isomer, unassigned)",
    "unitAbbrev": "nM",
    "IC50": 7
  },
  {
    "compound": "Cc1cc(Nc2cc(-c3cnn4cc(C#N)cnc34)ncc2C(=O)NC[C@@H](F)C(C)(C)O)n(C)n1",
    "unitAbbrev": "nM",
    "IC50": 8
  }
]

[a] CC(C)Nc1cc(-c2cnc3cc(C#N)cnn23)ncc1C(=O)NCCc1cccs1
[b] CNC(=O)c1ccc(Nc2cc(-c3cnn4cc(C#N)cnc34)ncc2C(=O)NC[C@@H](F)C(C)(C)O)cc1
[c] CC(C)(O)[C@H](F)CNC(=O)c1cnc(-c2cnn3cc(Cl)cnc23)cc1Nc1cnn(C2CC2)c1
[d] CC(C)Nc1cc(-c2cnc3cc(C#N)cnn23)ncc1C(=O)NCCC(C)(C)O
[e] CC(C)Nc1cc(-c2cnn3cc(Cl)cnc23)ncc1C(=O)NCC(=O)N1CCC2(CCO2)CC1
// sort entries: IC50, high to low Please respond with the labels ordered as the question requires.
e, d, b, a, c

[a] CC(C)(F)Cn1cc(Nc2cc(-c3cnn4cc(Cl)cnc34)ncc2C(=O)NC[C@@H](F)C(C)(C)O)cn1
[b] CC(C)(O)[C@H](F)CNC(=O)c1cnc(-c2cnn3cc(Cl)cnc23)cc1Nc1cnn(CC(F)F)c1
[c] CC(C)(O)[C@H](F)CNC(=O)c1cnc(-c2cnn3cccnc23)cc1NC1CCOCC1
Put the items in order so that reported IC50 rises from first to last. Please respond with the labels ordered as the question requires.
b, a, c

* * *

System: IL-6 levels in human whole blood stimulated with a TLR2 agonist
Assay: IRAK4 Whole Blood Assay (lipoteichoic acid/TLR2-stimulated IL-6)
Assay type: cell-based
Conditions: Homo sapiens, lipoteichoic acid 10 μg/mL, IL-6 readout
testReadout: EC50 (nM)

[
  {
    "compound": "CC(C)(O)[C@H]1CC[C@H](NC(=O)c2cnc(-c3cnc4cc(Cl)cnn34)cc2Nc2cnn(CC(F)F)c2)CC1 [Example 264]",
    "EC50 / nM": 910
  },
  {
    "compound": "CC(C)(O)[C@H](F)CNC(=O)c1cnc(-c2cnn3cc(C#N)cnc23)cc1NC1COC1 [Example 99]",
    "EC50 / nM": 600
  },
  {
    "compound": "CC(C)(O)[C@H](F)CNC(=O)c1cnc(-c2cnn3cc(C#N)cnc23)cc1Nc1ccc(C(N)=O)cc1 [Example 112]",
    "EC50 / nM": 820
  },
  {
    "compound": "CNC(=O)c1ccc(Nc2cc(-c3cnn4cc(Cl)cnc34)ncc2C(=O)NC[C@@H](F)C(C)(C)O)cc1 [Example 34]",
    "EC50 / nM": 360
  }
]

[1] CC(C)(O)[C@H](F)CNC(=O)c1cnc(-c2cnc3cc(C#N)cnn23)cc1NC1CC(F)(F)C1 [Example 195]
[2] CC(C)(O)[C@H](F)CNC(=O)c1cnc(-c2cnn3cc(C#N)cnc23)cc1NC1CCC(F)(F)C1O (some centres unmarked) [Example 107]
Just curious, which one has the larger EC50 reading, 1 or 2 ? API: response body contains the label of the selected item.
1
(1: 700 nM, 2: 430 nM)

[A] CC(C)(O)[C@H](F)CNC(=O)c1cnc(-c2cnn3cc(C#N)cnc23)cc1Nc1cccc(C(N)=O)c1 [Example 111]
[B] CC(C)Nc1cc(-c2cnc3cc(C#N)cnn23)ncc1C(=O)NCCCn1ccnc1 [Example 214]
[C] CCNc1cc(-c2cnn3cc(C#N)cnc23)ncc1C(=O)NC[C@@H](F)C(C)(C)O [Example 93]
[D] CC(C)(O)[C@H](F)CNC(=O)c1cnc(-c2cnn3cc(C#N)cnc23)cc1N[C@@H]1CCC[C@@H]1F [Example 105]
// sort entries: EC50, high to low Please respond with the labels ordered as the question requires.
C, A, B, D
(C: 1660 nM, A: 900 nM, B: 480 nM, D: 240 nM)

[A] Cc1cnn2c(-c3cc(NC4CCC4)c(C(=O)NC[C@@H](F)C(C)(C)O)cn3)cnc2c1 [Example 185]
[B] CCn1cc(Nc2cc(-c3cnc4cc(Cl)cnn34)ncc2C(=O)NC[C@@H](F)C(C)(C)O)cn1 [Example 266]
Just curious, which one has the larger EC50 reading, A or B ? API: response body contains the label of the selected item.
A

[A] CC(C)Nc1cc(-c2cnc3cc(C(F)F)cnn23)ncc1C(=O)NC[C@H](F)C(C)(C)O [Example 209]
[B] CC(C)Nc1cc(-c2cnc3cc(C#N)cnn23)ncc1C(=O)NCC(F)C1CC(C)OC(C)C1 (centres unmarked) [Example 203]
[C] CC(C)(O)[C@H](F)CNC(=O)c1cnc(-c2cnc3cc(C#N)cnn23)cc1Nc1cnn(CC(F)F)c1 [Example 260]
[D] CC[C@@H](C)Nc1cc(-c2cnn3cc(C#N)cnc23)ncc1C(=O)NC[C@@H](F)C(C)(C)O [Example 97]
[E] CC(C)(O)[C@H](F)CNC(=O)c1cnc(-c2cnn3cc(C#N)cnc23)cc1Nc1cnn(CC2CC2)c1 [Example 249]
Put the items in order so that reported EC50 rises from first to last. Please respond with the labels ordered as the question requires.
C, E, A, B, D
(C: 80 nM, E: 400 nM, A: 610 nM, B: 890 nM, D: 1600 nM)
